Where do the numbers come from? From the supplement of paper PMC11451515.

tested on: P12-Ichikawa; test: cell viability relative to DMSO control; higher = less cytotoxic; details: RPMI 5 mM glucose + 10% FBS; 48 h; 0.0632 µM
quantity_measured: cell viability (%)
Give bare numbers, in %.

Look over these answered cases.
COC(=O)\C1=C\CCN(C)C1	102
CCCC1OC2C[C@H]3[C@@H]4CCC5=CC(=O)C=C[C@]5(C)[C@H]4C(O)C[C@]3(C)[C@]2(C(=O)CO)O1 (stereo partly drawn)	70.6
CN(C)C1=C(Br)C=C(C=C1)C\2NC3=C(\C4=C2C(=O)CC(C)(C)C4)C5=CC=CC=C5C=C3 (stereo not drawn)	111
OC1=CC2=C(C(=C1)O)C(=O)\C(=C(/O2)C3=CC(=C(O)C=C3)O)O	109
Cc1noc(-c2ccc(CSCCC(=O)O)cc2)c1NC(=O)OC(C)c1ccccc1Cl (stereo not drawn)	86.4
CC(C)(C)[C@H](NC(=O)c1ccc(N)c(Cl)c1)C(=O)N1CCC[C@H]1C(=O)N[C@H](C#N)CC(=O)O	126

Record cell viability for all entries; do not skip any.
1. O=C(Nc1cccnn1)N1CCC(=Cc2cccc(Oc3ccc(C(F)(F)F)cn3)c2)CC1
2. CCOc1cc(CC(=O)N[C@@H](CC(C)C)c2ccccc2N2CCCCC2)ccc1C(=O)O

[101, 124]

====

system: SEM cells; experiment: cell viability relative to DMSO control; higher = less cytotoxic; conditions: HPLM + 10% dialyzed FBS; 48 h; 0.0632 µM
Can you tell me cell viability for the items I'm about to list?
For clarity, give the value followed by its unit.

Look over these answered cases.
CC(O)C1C2C(C)\C(=C(/N2C1=O)C(O)=O)SC3CNC(C3)C(=O)N(C)C (stereo not drawn)	90.4%
CCOC(=O)Nc1ccc(NCc2ccc(F)cc2)nc1N	105%
COC1=CC=C2/C3=N/CCN3\C(=N/C2=C1OC)NC(=O)C4=CC=CN=C4	101%
CC(C)Oc1ccc(C(=O)N[C@H](CNC(=O)CN(C)C)Cc2ccc(-c3cn4cccc([C@H](C)O)c4n3)cc2)cc1Cl	118%
COC(=O)\C1=C\CCN(C)C1	102%
COc1cccc2c1CCCC2CCCN1CCN(C2CCCCC2)CC1 (stereo not drawn)	91.6%
O=C(O)CC/C=C\CC[C@@H]1[C@@H](N2CCCCC2)[C@@H](O)C[C@@H]1OCc1ccc(-c2ccccc2)cc1	129%
OC(CN1CCN(c2cccc(Cl)c2)CC1)C(c1ccccc1)c1ccccc1 (stereo not drawn)	104%
N[S+](=O)([O-])OC[C@@H]1C[C@@H](n2ccc3c(N[C@H]4CCc5ccccc54)ncnc32)C[C@@H]1O	105%
N#C/N=C(\NCCCCCCOc1ccc(Cl)cc1)Nc1ccncc1	10.7%

Record cell viability for all entries; do not skip any.
1. NC(=O)OCC(COC(N)=O)c1ccccc1
2. Cc1nc(Nc2n[nH]c3c2CN(C(=O)N[C@H](CN(C)C)c2ccccc2)C3(C)C)c2sccc2n1
3. N#C[C@H](O[C@@H]1O[C@H](CO[C@@H]2O[C@H](CO)[C@@H](O)[C@H](O)[C@H]2O)[C@@H](O)[C@H](O)[C@H]1O)c1ccccc1
4. OC1=CC2=C(C(=C1)O)C(=O)\C(=C(/O2)C3=CC(=C(O)C=C3)O)O
5. CCOC(=O)\C1=C\[C@@H](OC(CC)CC)[C@H](NC(C)=O)[C@@H](N)C1

1: 101%; 2: 52.6%; 3: 115%; 4: 98.2%; 5: 77.9%

====

Can you tell me cell viability for the items I'm about to list?
test system: SEM cells; test: cell viability relative to DMSO control; higher = less cytotoxic; settings: RPMI 5 mM glucose + 10% FBS; 48 h; 5.12 µM
One number for each entry, in %.

Look over these answered cases.
COC(=O)\C1=C\CCN(C)C1	98.8
CC(C)OC1=CC=C2C(=C1)O\C=C(/C2=O)C3=CC=CC=C3	128
C1CCN2C[C@H]3C[C@H](\C=C/4CCCN[C@@H]34)[C@H]2C1	95.7
Cc1cccc(/C=N/Nc2cc(N3CCOCC3)nc(OCCc3ccccn3)n2)c1	66.9
C#CCN[C@@H]1CCc2ccccc21.CS(=O)(=O)O	24.4
Cc1ncc([N+](=O)[O-])n1CC(C)O (centres undefined)	96.2
COC1=CC=C(C=C1O)C/2=C/C(=O)C3=C(O2)C=C(O[C@@H]4O[C@H](CO[C@@H]5O[C@@H](C)[C@H](O)[C@@H](O)[C@H]5O)[C@@H](O)[C@H](O)[C@H]4O)C=C3O	85.9
CC/1=C(/N2[C@H](SC1)[C@H](NC(=O)C(N)C3=CC=CC=C3)C2=O)C(O)=O (some centres undefined)	136
CC(NCCc1ccc(O)cc1)C(O)c1ccc(O)cc1 (centres undefined)	98.2
O=c1[nH]c(=O)n(C2CCCO2)cc1F (centres undefined)	123

Record cell viability for all entries; do not skip any.
1. O.O.CCN1CCN(C(=O)N[C@H](C(=O)N[C@H]2[C@@H]3SC\C(=C(/N3C2=O)C(O)=O)CSC4=NN=N[N]4C)C5=CC=C(O)C=C5)C(=O)C1=O
2. N#C[C@H](O[C@@H]1O[C@H](CO[C@@H]2O[C@H](CO)[C@@H](O)[C@H](O)[C@H]2O)[C@@H](O)[C@H](O)[C@H]1O)c1ccccc1
3. CN1CCN(CCOc2cc(OC3CCOCC3)c3c(Nc4c(Cl)ccc5c4OCO5)ncnc3c2)CC1
4. C[C@](N)(Cc1ccc(O)c(O)c1)C(=O)O

[90.9, 94.5, 62.9, 86.2]

====

test system: P12-Ichikawa; test: cell viability relative to DMSO control; higher = less cytotoxic; conditions: RPMI 5 mM glucose + 10% dialyzed FBS; 48 h; 46.1 µM
quantity_measured: cell viability

Look over these answered cases.
CC(O)C1C2C(C)\C(=C(/N2C1=O)C(O)=O)SC3CNC(C3)C(=O)N(C)C (stereo not drawn)	95.5%
OC[C@H]1O[C@@H]2[C@@H](OC\3=N\C(=N)\C=C/[N@@]23)[C@@H]1O	7.41%

Next, consider the following compound.
Entry "CC(C)OC1=CC=C2C(=C1)O\C=C(/C2=O)C3=CC=CC=C3" has what cell viability?
110%

====

tested on: NOMO1; assay: cell viability relative to DMSO control; higher = less cytotoxic; settings: RPMI 5 mM glucose + 10% FBS; 48 h; 0.00702 µM
Can you tell me cell viability for the items I'm about to list?
One number for each entry, in %.

Look over these answered cases.
NC/1=N/C(=O)N(/C=N1)[C@@H]2O[C@H](CO)[C@@H](O)[C@H]2O	91.5
OC[C@H]1O[C@@H](Oc2cc(O)cc(/C=C/c3ccc(O)cc3)c2)[C@H](O)[C@@H](O)[C@@H]1O	111
C#CCN[C@@H]1CCc2ccccc21.CS(=O)(=O)O	92.7
CC[C@]1(O)C[C@@H]2CN(CCc3c([nH]c4ccccc34)[C@@](C(=O)OC)(c3cc4c(cc3OC)N(C)[C@H]3[C@@](O)(C(N)=O)[C@H](O)[C@]5(CC)C=CCN6CC[C@]43[C@@H]65)C2)C1	132

Entry "C[C@@]1(C(=O)Nc2ccc(F)nc2)CCCN1c1nc(Nc2cc(C3CC3)[nH]n2)c2cccn2n1" has what cell viability?
120

====

system: NOMO1; assay: cell viability relative to DMSO control; higher = less cytotoxic; settings: HPLM + 10% dialyzed FBS; 48 h; 15.4 µM
// assign Fulfilled if cell viability falls strictly below 90%, else Not fulfilled (ties count as Not fulfilled)

In plain terms, does "C[C@H]1O[C@H](C[C@H](O)[C@@H]1O)O[C@H]2[C@@H](O)C[C@@H](O[C@@H]2C)O[C@H]3[C@@H](O)C[C@@H](O[C@@H]3C)O[C@H]4CC[C@@]5(C)[C@H](CC[C@@H]6[C@@H]5C[C@@H](O)[C@]7(C)[C@H](CC[C@]67O)C/8=C/C(=O)OC8)C4" come in under 90% for cell viability?
Fulfilled

In plain terms, does "CO/N=C(/C(=O)N[C@@H]1C(=O)N2C(C(=O)O)=C(CSC(=O)c3ccco3)CS[C@H]12)c1csc(N)n1" come in under 90% for cell viability?
Fulfilled

====

test system: P12-Ichikawa; experiment: cell viability relative to DMSO control; higher = less cytotoxic; conditions: RPMI 5 mM glucose + 10% dialyzed FBS; 48 h; 0.0632 µM
Can you tell me cell viability for the items I'm about to list?
Numbers only, in %.

CNC(=O)[C@H](CC/1=C/N=C\2/C=C\C\C=C12)NC(=O)[C@H](CC(C)C)CC(=O)NO	115
OC(CN1CCN(c2cccc(Cl)c2)CC1)C(c1ccccc1)c1ccccc1 (stereo not given)	118
CCN(c1ccccc1)c1cc(NC)[n+](C)c(C)n1	111
CC(C)(C)[C@H](NC(=O)c1ccc(N)c(Cl)c1)C(=O)N1CCC[C@H]1C(=O)N[C@H](C#N)CC(=O)O	131

Next, consider the following compound.
Requested read-out cell viability, target or system P12-Ichikawa, entry "C=CCc1ccc(O)c(-c2ccc(O)c(CC=C)c2)c1"
122
